# Tested on: blackgrass
# test_method_notes: Test C preemergence
# Assay type: in vivo, Alopecurus myosuroides
# experimental_conditions: 500 g ai/ha, preemergence; 0 to 100 scale (0 no effect, 100 complete control)
# key: entry, value: Blackgrass plant response rating
Reply briefly: the number, and no unit.

Request body: readout Blackgrass plant response rating, system blackgrass, query `COC(C)(C)c1ncn(-c2ccc(C)c(C(=O)N3C[C@H](C)Oc4c(Cl)cccc43)c2)n1` . Return the value. 90

# value lookup — system blackgrass, readout Blackgrass plant response rating, item `CCOC[C@H]1CN(C(=O)c2cc(-n3cnc(C4CCC4)n3)cc3c2OCCO3)c2cccc(Cl)c2O1` 0

What is its Blackgrass plant response rating for blackgrass? Entry: `COC(=O)N(C)c1ncn(-c2cccc(C(=O)N3C[C@H](C)Oc4c(C)cccc43)c2)n1` 20

Query for blackgrass: what Blackgrass plant response rating does the record show for CCc1ncn(-c2cccc(C(=O)N3CC(C(F)(F)F)Oc4c(Cl)cccc43)c2)n1 (centres unmarked) ? 90

Which measured Blackgrass plant response rating belongs to Cc1cccc2c1OC(C(F)(F)F)CN2C(=O)c1ccnc(-n2cnc(C(C)(C)C)n2)c1 (centres unmarked) , tested on blackgrass? 70

Lab note: need Blackgrass plant response rating for `Cc1ccc(-n2cnc(C#N)n2)cc1C(=O)N1C[C@H](C)Oc2c(Cl)cccc21` on blackgrass, anyone have it? 30

Request: Blackgrass plant response rating, test system blackgrass, entry CC(C)(C)c1ncn(-c2cc(C(=O)N3CC(C(F)(F)F)Oc4c(Cl)cccc43)ccn2)n1 (centres unmarked) 40

Value wanted: Blackgrass plant response rating (blackgrass) of entry `COc1ccc(-n2cnc(C3CC3)n2)cc1C(=O)N1C[C@H](C)Oc2c(Cl)cccc21` 90

Please provide the recorded Blackgrass plant response rating for Cc1ccc(-n2cnc(CS(C)(=N)=O)n2)cc1C(=O)N1C[C@H](C)Oc2c(Cl)cccc21 (some centres unmarked) , tested on blackgrass. 80

Give blackgrass Blackgrass plant response rating for `CC(=O)N(C)c1ncn(-c2cccc(C(=O)N3C[C@H](C)Oc4c(C)cccc43)c2)n1` 40

State its Blackgrass plant response rating on blackgrass: CCOCC1CN(C(=O)c2cc(-n3cnc(C4CCC4)n3)ccc2OC)c2cccc(Cl)c2O1 (centres unmarked) 20

Identify the measured Blackgrass plant response rating of `CCOC[C@H]1CN(C(=O)c2cc(-n3cnc(C(C)(C)C)n3)cc3c2OCO3)c2cccc(Cl)c2O1` for blackgrass. 30

API: value(readout=Blackgrass plant response rating, system=blackgrass) for record CCOCC1CN(C(=O)c2cc(-n3cnc(CC)n3)ccc2OC)c2cccc(Cl)c2O1 (centres unmarked) 50

Lab note: need Blackgrass plant response rating for Cc1ncnn1-c1cc(C(=O)N2CC(C(F)(F)F)Oc3c(Cl)cccc32)ccn1 (racemic) on blackgrass, anyone have it? 0
